Test Target: Insulin receptor (Homo sapiens, UniProt P06213)
Sequence (P06213 28-758 limits assumed): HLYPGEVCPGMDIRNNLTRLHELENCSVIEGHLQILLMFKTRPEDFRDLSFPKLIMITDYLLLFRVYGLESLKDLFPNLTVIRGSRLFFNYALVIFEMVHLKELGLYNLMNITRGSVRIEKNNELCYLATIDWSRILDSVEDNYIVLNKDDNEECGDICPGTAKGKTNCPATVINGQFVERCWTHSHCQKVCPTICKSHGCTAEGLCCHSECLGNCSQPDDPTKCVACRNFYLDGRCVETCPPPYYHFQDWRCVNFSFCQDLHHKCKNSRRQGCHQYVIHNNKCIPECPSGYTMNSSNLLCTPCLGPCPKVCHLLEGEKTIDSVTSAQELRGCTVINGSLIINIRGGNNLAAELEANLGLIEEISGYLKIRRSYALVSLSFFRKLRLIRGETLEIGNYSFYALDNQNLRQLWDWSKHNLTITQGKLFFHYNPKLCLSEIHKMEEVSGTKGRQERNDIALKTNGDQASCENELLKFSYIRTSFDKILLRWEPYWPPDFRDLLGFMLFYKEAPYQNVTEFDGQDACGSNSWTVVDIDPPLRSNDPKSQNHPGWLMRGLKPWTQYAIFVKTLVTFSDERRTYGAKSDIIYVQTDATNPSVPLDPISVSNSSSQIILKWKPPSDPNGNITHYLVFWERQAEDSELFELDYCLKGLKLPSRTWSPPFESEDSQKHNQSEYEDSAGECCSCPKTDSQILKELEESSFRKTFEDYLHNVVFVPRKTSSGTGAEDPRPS
Sequence (P06213 763-1382 limits assumed): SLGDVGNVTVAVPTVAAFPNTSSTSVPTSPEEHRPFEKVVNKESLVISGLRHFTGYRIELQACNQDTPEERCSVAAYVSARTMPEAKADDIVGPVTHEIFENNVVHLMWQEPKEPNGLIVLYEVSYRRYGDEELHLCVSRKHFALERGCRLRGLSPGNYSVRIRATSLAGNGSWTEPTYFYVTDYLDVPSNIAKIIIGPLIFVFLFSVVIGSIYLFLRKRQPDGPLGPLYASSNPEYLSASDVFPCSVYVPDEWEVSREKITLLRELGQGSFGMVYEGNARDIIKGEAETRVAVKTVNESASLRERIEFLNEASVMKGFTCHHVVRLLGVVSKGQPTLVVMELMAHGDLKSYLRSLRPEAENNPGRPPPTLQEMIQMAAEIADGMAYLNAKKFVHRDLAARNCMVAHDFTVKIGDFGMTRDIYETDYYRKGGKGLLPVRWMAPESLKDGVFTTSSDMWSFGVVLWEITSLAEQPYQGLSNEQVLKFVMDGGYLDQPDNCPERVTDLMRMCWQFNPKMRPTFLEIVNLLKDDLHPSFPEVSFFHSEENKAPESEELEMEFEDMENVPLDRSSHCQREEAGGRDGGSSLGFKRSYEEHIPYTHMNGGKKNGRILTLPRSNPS
Experimental Endpoint: IC50 (nM)
One number for each entry, in nM.

Worked examples follow.
Smi	IC50 [nM]
CN1CCN(c2ccc(Nc3ncc4ccc(-c5ccccc5C(N)=O)n4n3)cc2)CC1	326
COc1cc(N2CCC(N3CCOCC3)CC2)ccc1Nc1ncc2ccc(-c3ccccc3N(C)S(C)(=O)=O)n2n1	809

compound COc1cc(Nc2ncc3ccc(-c4ccccc4)n3n2)cc(OC)c1OC , IC50 observed: 295

----------
Exercise: for every item that follows, state its recorded bioavailability.
Test: Oral bioavailability in Sprague-Dawley rat
Assay type: ADME, organism-based
Experimental Setup: in vivo
Numbers only, in %.

Smi	bioavailability [%]
COc1cc(N2CCN(C[C@H](C)O)CC2)ccc1Nc1ncc2ccc(-c3ccccc3N(C)S(C)(=O)=O)n2n1	38

For each of the compounds below, state bioavailability.
1. COc1ccccc1-c1ccc2cnc(Nc3ccc(N4CCN(C)CC4)cc3)nn12
2. COc1cc(N2CCC(N3CCOCC3)CC2)ccc1Nc1ncc2ccc(-c3ccccc3N(C)S(C)(=O)=O)n2n1
3. COc1cc(N2CCN(C[C@@H](C)O)CC2)ccc1Nc1ncc2ccc(-c3ccccc3OC)n2n1
4. COc1cc(N2CCN(C[C@@H](C)O)CC2)ccc1Nc1ncc2ccc(-c3ccccc3N(C)S(C)(=O)=O)n2n1
5. COc1cc(N2CCN(C[C@H](C)O)CC2)ccc1Nc1ncc2ccc(-c3ccccc3OC)n2n1

Output:
[4, 47, 6, 41, 8]

Entry COc1cc(N2CCN(N3CCOCC3)CC2)ccc1Nc1ncc2ccc(-c3ccccc3OC)n2n1 ; bioavailability = 34

----------
Test: Drug level in human SUP-M2 cells xenografted SCID mouse tumor at 30 mg/kg, po after 12 hrs by LC/MS analysis
Type: ADME, organism-based, Neoplasm
Design: dose 30 mg/kg, route oral
Experimental Setup: read-out: Drug uptake
Experimental Endpoint: concentration at 12 h (ng/g)
Numbers only, in ng/g.

GET /value?item= COc1cc(N2CCN(C[C@H](C)O)CC2)ccc1Nc1ncc2ccc(-c3ccccc3N(C)S(C)(=O)=O)n2n1 &field=concentration at 12 h returns 235

----------
Test: Apparent permeability from apical to basolateral side of human Caco2 cells
Type: ADME, cell-based
Experimental Setup: Caco-2
Experimental Endpoint: Papp A→B (×10⁻⁶ cm/s)
Answers are plain numbers, in ×10⁻⁶ cm/s.

For COc1cc(N2CCN(C[C@H](C)O)CC2)ccc1Nc1ncc2ccc(-c3ccccc3N(C)S(C)(=O)=O)n2n1 the molecule record lists Papp A→B as 20.3

----------
Test: Clearance in iv dosed Sprague-Dawley rat
Format: ADME, organism-based
Experimental Setup: in vivo
Experimental Endpoint: clearance (mL/min/kg)
Answers are plain numbers, in mL/min/kg.

The value of clearance measured for the molecule COc1ccccc1-c1ccc2cnc(Nc3ccc(N4CCN(C)CC4)cc3)nn12 turned out to be 60

----------
Test: Drug level in human SUP-M2 cells xenografted SCID mouse tumor at 30 mg/kg, po after 6 hrs by LC/MS analysis
Type: ADME, organism-based, Neoplasm
Set-up: dose 30 mg/kg, route oral
Experimental Setup: read-out: Drug uptake
Experimental Endpoint: concentration at 6 h (ng/g)
Numbers only, in ng/g.

GET /value?item= COc1cc(N2CCN(C[C@H](C)O)CC2)ccc1Nc1ncc2ccc(-c3ccccc3N(C)S(C)(=O)=O)n2n1 &field=concentration at 6 h returns 792

Every entry's value here was drawn from ChEMBL document CHEMBL1821719.
